# system_under_test: human GR (Homo sapiens, UniProt P04150)
# Construct: U937 cells contain an endogenous glucocorticoid receptor (GR); endogenous in cells; host or cells: U937 cells stably transfected with the TNF-alpha promoter/beta-lactamase reporter
# Sequence (P04150 1-777): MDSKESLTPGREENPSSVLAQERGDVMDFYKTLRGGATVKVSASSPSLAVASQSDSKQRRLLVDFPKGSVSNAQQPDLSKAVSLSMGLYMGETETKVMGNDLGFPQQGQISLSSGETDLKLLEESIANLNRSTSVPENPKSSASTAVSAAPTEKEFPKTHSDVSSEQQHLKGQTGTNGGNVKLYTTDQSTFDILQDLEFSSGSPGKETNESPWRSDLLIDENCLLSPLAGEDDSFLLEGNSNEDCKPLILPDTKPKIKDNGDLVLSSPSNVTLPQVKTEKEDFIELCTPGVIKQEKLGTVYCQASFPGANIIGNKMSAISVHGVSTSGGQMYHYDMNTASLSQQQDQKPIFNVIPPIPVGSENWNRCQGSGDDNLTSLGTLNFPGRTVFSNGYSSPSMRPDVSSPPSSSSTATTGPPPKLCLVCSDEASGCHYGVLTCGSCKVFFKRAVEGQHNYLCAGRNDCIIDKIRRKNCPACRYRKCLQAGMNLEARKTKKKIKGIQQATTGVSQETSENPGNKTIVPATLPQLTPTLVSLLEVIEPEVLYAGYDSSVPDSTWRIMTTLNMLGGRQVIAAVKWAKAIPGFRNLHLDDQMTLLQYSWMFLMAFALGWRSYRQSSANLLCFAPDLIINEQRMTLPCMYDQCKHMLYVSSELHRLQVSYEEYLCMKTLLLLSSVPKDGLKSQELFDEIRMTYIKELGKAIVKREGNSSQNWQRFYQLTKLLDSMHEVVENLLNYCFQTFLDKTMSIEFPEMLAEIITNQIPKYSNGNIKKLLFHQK
# test: Transrepression Assay (GITAR), TNFα-β-lactamase reporter gene in U937 cells
# Type: cell-based
# condition_notes: inflection point; U937 cells; Table 1; read-out: Transrepression U937 Cells GITAR IP
pEC50: −log10 of the molar value.
measured_attribute: pEC50

> print(dat)
                                   compound  result
1  CCN(CCC(F)(F)F)C(=O)[C@H]1CCC2=Cc3c(cnn3-c3ccc(F)cc3)C[C@@]21C    6.48
2  C[C@]12Cc3cnn(-c4ccc(F)cc4)c3C=C1CC[C@@H]2C(=O)N(CCc1ccccc1F)CC(O)C(F)(F)F (stereo partly shown) [Compound 93]    6.76

1 = CCCCN(CCC)C(=O)[C@H]1CCC2=Cc3c(cnn3-c3ccc(F)cc3)C[C@@]21C
2 = CCN(CC(O)C(F)(F)F)C(=O)[C@H]1CCC2=Cc3c(cnn3-c3ccc(F)cc3)C[C@@]21C (stereo partly shown) [Compound 72]
Query: Hello, I am sorting some records. Could you say if 1 or 2 has the smaller pEC50 value? Your choice should be expressed through its label.
Response: 1
